# Tested on: TK-10 renal
# measurement protocol: NCI tumour cell line growth inhibition, 48 h
reported endpoint: TGI

Below: 5 compounds and their reported TGI.
[[record]]
compound = "COc1ccc(Cn2c3c(cc(OC(C)=O)c2=O)Cc2ccccc2-3)cc1"
reported_endpoint = "TGI"
value_observed = "34 µM"

[[record]]
compound = "CNC(=O)OCc1nc(SSC(C)(C)C)n(C)c1COC(=O)NC"
reported_endpoint = "TGI"
value_observed = "13 µM"

[[record]]
compound = "N#CCC(=O)N/N=C1/C(=O)N(c2ccc(Cl)cc2)C(=O)C(=O)C1c1nc2ccccc2s1 (stereo not given)"
reported_endpoint = "TGI"
value_observed = "> 100 µM"

[[record]]
compound = "OCC12C=CC(C1)c1ccccc12 (stereo not given)"
reported_endpoint = "TGI"
value_observed = "> 100 µM"

[[record]]
compound = "O=S(=O)(O)c1ccc(N=Nc2ccc3c(S(=O)(=O)O)cccc3c2O)c2ccccc12"
reported_endpoint = "TGI"
value_observed = "> 100 µM"


Look at this compound and give its reported TGI. CCOC1C(Br)Cn2c(=O)c3cc4ccccc4cc3c(=O)n2C1C (stereo not given)
> 100 µM

I have this compound here, CCOC(=O)CCC(NC(=O)c1ccc(Nc2nc3ccc(C(F)(F)F)cc3nc2-c2ccccc2)cc1)C(=O)OCC (stereo not given) , and I need its recorded TGI.
> 100 µM

Sample O=C(O)c1ccc(CN2CCC(CN[C@@H]3C[C@H]3c3ccccc3)CC2)cc1 — what was its TGI?
> 100 µM

Look up TGI: CCCOC(=O)N[C@H]1CCc2c(Cl)c(OC)c(OC)c(OC)c2-c2ccc(SC)c(=O)cc21
> 88.4 µM

Which measured TGI value corresponds to O=C(CSc1nnc(-c2ccccn2)s1)N/N=C/c1ccccc1 ?
> 100 µM

====

# System: LOX IMVI melanoma
# measurement protocol: NCI tumour cell line growth inhibition, 48 h
reported endpoint: TGI

[[record]]
compound = "CCCC1(CC(=O)O)OCCc2c1[nH]c1ccccc21 (centres undefined)"
measurement_target = "LOX IMVI melanoma"
value_observed = "> 100 µM"


What value of TGI has been recorded for this entry: CC1(O)C(C)(O)C2(C)O[Te]3(OC12C)OC1(C)C(C)(O)C(C)(O)C1(C)O3 (centres undefined)
18.9 µM

====

# Tested on: SW-620 colon
# measurement protocol: NCI tumour cell line growth inhibition, 48 h; in the data active means GI50 below about 0.43 µM; inactive means the rest
Outcomes you can answer with include only these: active, inactive

Example entries and their recorded answers appear below.
[[record]]
compound = "CCOc1cc(C(C)(C)C)ccc1C1=N[C@H](c2ccc(Cl)cc2)[C@H](c2ccc(Cl)cc2)N1C(=O)N1CCN(CC#Cc2cccc3c2CN([C@@H]2CCC(=O)NC2=O)C3=O)CC1"
discrete_label = "active"

[[record]]
compound = "CCCOC(=O)N[C@H]1CCc2c(Cl)c(OC)c(OC)c(OC)c2-c2ccc(SC)c(=O)cc21"
discrete_label = "active"

[[record]]
compound = "C=C(C)[C@@H]1CC[C@]2(COCCCN)CC[C@]3(C)[C@H](CC[C@@H]4[C@@](C)(CCCNCCCN)[C@H](C(=C)C)CC[C@]43C)[C@@H]12"
discrete_label = "inactive"

[[record]]
compound = "CN(c1ccc(NC(=O)Nc2c(Cl)cccc2Cl)cc1)c1ccnc(Nc2cccc(CS(C)(=O)=O)c2)n1"
discrete_label = "inactive"

[[record]]
compound = "CS(=O)(=O)CCNCc1coc(-c2ccc3ncnc(Nc4ccc(OCc5ccccc5)cc4)c3c2)c1"
discrete_label = "inactive"


Dear colleague, could you share the recorded outcome for N/N=C\c1c2ccccc2c(=O)n2c1oc1ccccc12 when you have a moment?
inactive

Recorded call for C=C1c2c(C)nn(-c3ccc(C#CCOC4OC(CO)C(O)C(O)C4O)cc3)c2N(C)C23C[C@H]1C1(C)c4c(C)nn(-c5ccc(C#CCOC6OC(CO)C(O)C(O)C6O)cc5)c4N(C)C(C)(C[C@H]12)C3 (stereo partly drawn) ?
inactive

Returns: the outcome recorded for O=C1C=CC(=O)C2C1C1(Cl)C(Cl)=C(Cl)C2(Cl)C1(Cl)Cl (stereo not drawn) in this assay.
inactive
